# Tested on: Jily
# TEST NAME: Hoechst 33342 nuclear staining, Jily
# Format: cell-based
# RUN PARAMETERS: 48 h, conc. 0.3 (μM)
REPORTED PROPERTY: Hoechst 33342 nuclear staining score

Item `COc1ccc(C(=O)Cn2c(-n3ccc(N)n3)nc3ccccc32)cc1` was tested on Jily; the reported Hoechst 33342 nuclear staining score is 0

Considering `COc1cccc(/C=C/C(=O)Cn2c(-n3ncnc3N)nc3ccccc32)c1` , its Hoechst 33342 nuclear staining score with Jily was recorded as 0

###

# System: HeLa
# TEST NAME: MTS proliferation assay, HeLa
# Type: cell-based, human
# RUN PARAMETERS: 72 h incubation
pIC50: −log10 of the molar value.
I'd appreciate it if you could supply pIC50 values for the items below.

So, `Nc1ccc(C(=O)Cn2c(-n3ncnc3N)nc3ccccc32)cn1` ? Its pIC50 was 6.00 to 7.00

Briefly, pIC50 measured for `COc1cccc(/C=C/C(=O)Cn2c(-n3ncnc3N)nc3ccccc32)c1` : < 6.00
